system: Influenza Ann Arbor virus; test: Chemoprophylaxis of Influenza Ann Arbor (A1) virus infection in mice; format: in vivo, mouse; conditions: oral; total dose 30 pg
Structures can show the parent of a compound that is named as a salt.
// No. animals surviving after 6 days lookup, one value per entry
Write the number on its own, no unit after it.

Study these solved cases before continuing.
compound	No. animals surviving after 6 days
CN(C)N [1,1-dimethylhydrazine]	5
CNNC [1,2-dimethylhydrazine, dihydrochloride]	6
CCC(CC)=NNC(N)=S	2
CC(C)=NNC(N)=S	3
CNN [Methylhydrazine, methylhydrazine]	2
NC(N)=NN=Cc1c(Cl)cccc1Cl	4

Switching to the query record.
Record for CCCC(C)=NNC(N)=S under target or system Influenza Ann Arbor virus: No. animals surviving after 6 days reported as 2
